Where these numbers come from: PubChem BioAssay AID330

System: P388 leukemia ip, CD2F1 mice, survival T/C
experiment_summary: NCI In Vivo Anticancer Drug Screen. Data for tumor model P388 Leukemia (intraperitoneal) in CD2F1 (CDF1) mice
reported_conditions: endpoint: median survival time; dose: 120.0 mg/kg/injection; schedule: Q01DX005 (ip); vehicle: saline with Tween-80; higher = longer survival
Description: The antitumor activity of compounds was measured in mice bearing transplantable tumors. Survival or tumor size were measured and the results are expressed as the measurement made in the treated group (T) divided by the measurement made in the vehicle treated control group (C). The tumor model used in this assay is P388 Leukemia (intraperitoneal) in CD2F1 (CDF1) mice
Inconclusive results and toxic doses are left out.
Below, each entry is listed alongside its reported T/C.

molecule: CC1=C(/C=C/C(C)=C/C=C/C(C)=C/C=C/C=C(C)/C=C/C=C(\C)C=O)C(C)(C)CCC1
meas_value: 92 % of control
//
molecule: O=C(NCc1cccnc1)Nc1cccc2c(NC(=O)NCc3cccnc3)cccc12
meas_value: 86 % of control
//
molecule: O=C1CS/C(=C/Cc2nc3ccccc3s2)N1
meas_value: 97 % of control
//
molecule: CC1C(=O)N(C)C(=O)N(C2CCCCC2)C1=O (stereo unspecified)
meas_value: 104 % of control
//
molecule: CSC(SC)c1cc(-c2c(Cl)cccc2Cl)no1
meas_value: 103 % of control
//
molecule: Nc1c(O)c(S(=O)(=O)O)c(O)c2c1C(=O)c1ccccc1C2=O
meas_value: 98 % of control
//
molecule: Nc1nc2c(C(=O)NCc3cccs3)nnn2c2cccc(Cl)c12
meas_value: 92 % of control
//
molecule: CCOC(=O)C(Cc1ccc(O)cc1)NC(=O)C1Cc2c([nH]c3ccccc23)C=N1 (stereo unspecified)
meas_value: 102 % of control
//
molecule: C=CC(C)(C)/C=C/C=O
meas_value: 92 % of control
//
molecule: CC(C)(C)c1ccc(-c2cc3nc(C(F)(F)F)cc(=O)n3[nH]2)cc1
meas_value: 89 % of control

Kindly consider the entry below.
Reported T/C, molecule COc1ccc(C2CC(C)(N3CCCC3)Oc3cc4c(cc32)OCO4)cc1 (stereo unspecified) : ____
92 % of control

* * *

Below, each entry is listed alongside its reported T/C.
System: P388 leukemia ip, CD2F1 mice, survival T/C
experiment_summary: NCI In Vivo Anticancer Drug Screen. Data for tumor model P388 Leukemia (intraperitoneal) in CD2F1 (CDF1) mice
reported_conditions: endpoint: median survival time; dose: 25.0 mg/kg/injection; schedule: Q01DX009 (ip); vehicle: Klucel (hydroxypropylcellulose) (HPC); higher = longer survival
Toxic doses and inconclusive results are not listed.

molecule: O=C(O)CC1Sc2nc3c(n2C1(O)c1ccccc1)-c1ccccc1CC3 (stereo unspecified)
T/C: 111 % of control
//
molecule: Clc1ccccc1N=Cc1ccc(C=Nc2ccccc2Cl)cc1
T/C: 92 % of control
//
molecule: CN1CCC(C(c2ccccc2)c2ccccc2)C1 (stereo unspecified)
T/C: 102 % of control
//
molecule: CN(C)CCCNc1ccc2ccc3c(NCCCN(C)C)ccc4ccc1c2c43
T/C: 102 % of control
//
molecule: CSCCC(NC(=O)CNC(=O)OCc1ccccc1)C(=O)O (stereo unspecified)
T/C: 94 % of control
//
molecule: Cc1cc(Cl)n2nc(-c3ccc(Cl)cc3)nc2n1
T/C: 100 % of control
//
molecule: COC1/C=C\OC2(C)Oc3c(C)c(O)c4c(O)c(c5sc(N)nc5c4c3C2=O)NC(=O)/C(C)=C\C=C\C(C)C(O)C(C)C(O)C(C)C(OC(C)=O)C1C (stereo unspecified)
T/C: 100 % of control
//
molecule: CCC(CC)C[Se][Se]CC(CC)CC
T/C: 103 % of control
//
molecule: CN(C)CCCC12OC(c3ccccc31)C(O)c1ccccc12 (stereo unspecified)
T/C: 102 % of control
//
molecule: COc1cc(I)cc(OC)c1OC
T/C: 96 % of control

Reported T/C, molecule `CC(=O)O[C@H]1[C@H]2O[C@]23[C@@H]2CC[C@]4(O)C[C@@H](O)CC[C@]4(C)[C@H]2CC[C@]3(C)[C@H]1c1ccc(=O)oc1` : ____
105 % of control

Reported T/C, molecule `CCOC(=O)C(CCc1ccc(N(CCCl)CCCl)cc1)(NC(C)=O)C(=O)OCC` : ____
111 % of control

Reported T/C, molecule CC(C)=CCCC(C)(OC1OC(CO)C(O)C(O)C1O)C1CCC2(C)C1C(O)CC1C3(C)CCC(O)C(C)(C)C3C(OC3OC(CO)C(O)C(O)C3OC3OC(C)C(O)C(O)C3O)CC12C (stereo unspecified) : ____
98 % of control

Reported T/C, molecule `COc1cccc(CC#N)c1O` : ____
105 % of control

Reported T/C, molecule `Cc1ccc(-n2c(COc3c(C)cccc3C)n[nH]c2=S)cc1` : ____
100 % of control

Reported T/C, molecule `CCN(CC)Cc1cc(N=Nc2cc(OC)c(N=Nc3ccc([N+](=O)[O-])cc3)cc2OC)c2ccccc2c1O` : ____
100 % of control

* * *

Tested on: P388 leukemia ip, CD2F1 mice, survival T/C
experiment_summary: NCI In Vivo Anticancer Drug Screen. Data for tumor model P388 Leukemia (intraperitoneal) in CD2F1 (CDF1) mice
reported_conditions: endpoint: median survival time; dose: 50.0 mg/kg/injection; schedule: Q01DX009 (ip); vehicle: saline with Tween-80
Inconclusive results and toxic doses are left out. Rule for the calls: active = survival T/C of 150% or more; inactive = T/C below 125% in these data.
Log the outcome using a class from true (1) (active), false (0) (inactive)

// return assay outcome for `O=C(NCCCl)OCC(Cl)(Cl)Cl`
false (0)

// return assay outcome for `O=C1c2ccccc2C(=O)N1CBr`
false (0)

* * *

System: P388 leukemia ip, CD2F1 mice, survival T/C
experiment_summary: NCI In Vivo Anticancer Drug Screen. Data for tumor model P388 Leukemia (intraperitoneal) in CD2F1 (CDF1) mice
reported_conditions: endpoint: median survival time; dose: 12.5 mg/kg/injection; schedule: Q01DX009 (ip); vehicle: Klucel (hydroxypropylcellulose) (HPC); higher = longer survival
Inconclusive results and toxic doses are left out.
readout_type: T/C

molecule: CN(C)CCCNc1ccc2ccc3c(NCCCN(C)C)ccc4ccc1c2c43
T/C: 99 % of control

Reported T/C, molecule `C=CCSc1nc2ccc(NC(C)=O)cc2s1` : ____
108 % of control

Reported T/C, molecule `CCOC(=O)C(CCc1ccc(N(CCCl)CCCl)cc1)(NC(C)=O)C(=O)OCC` : ____
109 % of control

* * *

Below, each entry is listed alongside its reported T/C.
System: P388 leukemia ip, CD2F1 mice, survival T/C
experiment_summary: NCI In Vivo Anticancer Drug Screen. Data for tumor model P388 Leukemia (intraperitoneal) in CD2F1 (CDF1) mice
reported_conditions: endpoint: median survival time; dose: 100.0 mg/kg/injection; schedule: Q04DX002 (ip); vehicle: saline with Tween-80; higher = longer survival
Toxic doses and inconclusive results are not listed.

Below are worked cases with known answers.
compound: CCC(C(=O)O)C1(C(=O)O)CCCCCC1 (stereo unspecified)
T/C: 98 % of control

compound: CCOC(=O)C(CC)c1ccncc1C (stereo unspecified)
T/C: 118 % of control

compound: COc1ccc(/C=N\N=C(/[O-])c2ccccc2O)cc1.COc1ccc(/C=N\N=C(/[O-])c2ccccc2O)cc1.[OH3+].[OH3+].[Zn+2]
T/C: 100 % of control

compound: ClC1C(Cl)C(Cl)C(Cl)C(Cl)C1Cl (stereo unspecified)
T/C: 100 % of control

compound: CN(C)c1ccc2c(c1)Oc1cc(N(C)C)ccc1C21c2ccccc2C(=O)N1N
T/C: 100 % of control

Kindly consider the entry below.
Reported T/C, compound `O=C1c2cc3cc4ccccc4cc3cc2C(=O)c2c(O)ccc(O)c21` : ____
91 % of control

* * *

Tested on: P388 leukemia ip, CD2F1 mice, survival T/C
experiment_summary: NCI In Vivo Anticancer Drug Screen. Data for tumor model P388 Leukemia (intraperitoneal) in CD2F1 (CDF1) mice
reported_conditions: endpoint: median survival time; dose: 100.0 mg/kg/injection; schedule: Q04DX002 (ip); vehicle: saline; higher = longer survival
Toxic doses and inconclusive results are not listed.
readout_type: T/C

Below are worked cases with known answers.
compound: COC(=O)C1CC2C(=O)N(C)C(Br)C(Br)C12 (stereo not drawn)
T/C: 101 % of control

compound: CN(CCC[NH-])CCC[NH-].[Cl][Pd][Cl]
T/C: 98 % of control

compound: CC(NC(=O)c1cccc2c1Oc1ccccc1S2)C(=O)O (stereo not drawn)
T/C: 98 % of control

compound: CN1CCc2nc[nH]c2C1
T/C: 97 % of control

compound: [Cl][Pt+2][Cl].[NH-]C(C(=O)O)C([NH-])C(=O)O (stereo not drawn)
T/C: 101 % of control

Reported T/C, compound CCn1cc(C(=O)O)c(=O)c2ccc(-c3cn(C)nc3C)nc21 (tested in a mixture with another compound) : ____
99 % of control

Reported T/C, compound `N#CNC(=S)S` : ____
105 % of control

Reported T/C, compound `OCCN(CCO)c1nc(N(CCO)CCO)c(N2CCCCC2)c(N2CCCCC2)n1` : ____
104 % of control
